experimental-system: GST-Aurora A (Homo sapiens)
Construct: N-terminal GST fusion with full length Aurora A (1-403 amino acids)
Sequence (O14965 whole entry, the tested form may be a part): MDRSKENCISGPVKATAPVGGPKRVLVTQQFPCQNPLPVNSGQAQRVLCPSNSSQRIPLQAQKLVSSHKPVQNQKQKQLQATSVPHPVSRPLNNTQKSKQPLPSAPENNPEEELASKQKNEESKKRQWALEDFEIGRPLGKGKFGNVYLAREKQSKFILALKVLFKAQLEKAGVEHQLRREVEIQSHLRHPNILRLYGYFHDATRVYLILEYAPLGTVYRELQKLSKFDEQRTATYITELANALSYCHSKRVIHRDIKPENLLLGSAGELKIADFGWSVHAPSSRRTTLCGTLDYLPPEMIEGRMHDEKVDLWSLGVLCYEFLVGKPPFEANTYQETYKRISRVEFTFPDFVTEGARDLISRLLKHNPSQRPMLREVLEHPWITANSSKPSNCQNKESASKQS
protocol-description: Aurora A IC50, Caliper LC3000 mobility shift assay
assay-context: LC3000 method; 15 uM ATP (the KM value); read-out: Aurora Kinase A Activity (IC50)
Method: The Aurora assays described here are performed on two Caliper Life Sciences systems: the LC3000 and the Desktop Profiler. […] The plate is read on a Caliper LC3000 in an Off-Chip mobility shift assay format, using the following parameters for a 12-sipper chip: screening pressure—1.8 psi, upstream voltage—2700, downstream voltage—1000. […]
Form field: IC50 (one value per entry).

compound	experimental-system	quantity-name	experimental-result
O=C(c1ccc(F)cc1C(F)(F)F)N1CCOc2cc(Oc3ccnc4[nH]c(=O)c5ccccc5c34)ccc21	GST-Aurora A (Homo sapiens)	IC50	> 100 nM
O=C(Nc1ccc(Nc2ccnc3[nH]c(=O)c4ccccc4c23)cc1)c1cc(Cl)cc(Cl)c1	GST-Aurora A (Homo sapiens)	IC50	< 11 nM

Qu. // lookup IC50 | system=GST-Aurora A (Homo sapiens) | key= O=C(Nc1ccccc1)C1(CNc2ccnc3[nH]c(=O)c4ccccc4c23)CC1
Ans. > 100 nM

Qu. Further, for O=C(Nc1ccc(Nc2ccnc3[nH]c(=O)c4ccccc4c23)cc1)c1cc(C(F)(F)F)cc(C(F)(F)F)c1 ?
Ans. 11 to 100 nM

Qu. Another compound to check: O=C(Nc1ccc(Nc2ccnc3[nH]c(=O)c4ccccc4c23)cc1)c1ncccc1F
Ans. 11 to 100 nM

Qu. Record: Cc1cc(Nc2ccnc3[nH]c(=O)c4ccccc4c23)n(CC(=O)Nc2ccc(F)c(F)c2)n1
Ans. > 100 nM

Qu. Again, but for O=C(c1ccccc1)N1CC(Nc2ccnc3[nH]c(=O)c4ccccc4c23)C1
Ans. > 100 nM

Qu. Same again, this time with O=C(Nc1ccc(Nc2ccnc3[nH]c(=O)c4ccc(C(F)(F)F)cc4c23)cc1)c1ccc(F)cc1C(F)(F)F
Ans. < 11 nM

Qu. And what about the compound O=C(CN1CCC(Nc2ccnc3[nH]c(=O)c4ccccc4c23)CC1)NC1CC1 ?
Ans. > 100 nM

Qu. Further, for O=C(Cn1cc(Nc2ccnc3[nH]c(=O)c4ccccc4c23)cn1)Nc1ccc(F)cc1 ?
Ans. > 100 nM

Qu. Further, for O=C(Nc1ccc(Nc2ccnc3[nH]c(=O)c4ccc(F)cc4c23)c(F)c1)c1ccc(F)cc1C(F)(F)F ?
Ans. < 11 nM

Qu. What about this compound? O=C(Cn1cc(Nc2ccnc3[nH]c(=O)c4ccc(F)cc4c23)cn1)Nc1ccc(F)cc1
Ans. 11 to 100 nM

Qu. Follow-up entry: O=C(Nc1ccc(Nc2ccnc3[nH]c(=O)c4ccc(C(F)(F)F)cc4c23)cc1)c1ccccc1
Ans. < 11 nM

Qu. What would you report for O=c1[nH]c2ncccc2c2cc(NCc3c(F)cccc3Cl)ccc12 ?
Ans. > 100 nM

Qu. Similarly, CNC(=O)Nc1ccc(Nc2ccnc3[nH]c(=O)c4ccccc4c23)cc1 ?
Ans. 11 to 100 nM

Qu. Entry to check: O=C(Nc1ccc(Nc2ccnc3[nH]c(=O)c4c(OCCN5CCOCC5)cccc4c23)cc1)c1ccccc1
Ans. 11 to 100 nM

Qu. How about O=C1CCCN1CCCNc1ccc2c(=O)[nH]c3ncccc3c2c1 ?
Ans. > 100 nM

Qu. // next record O=C(Nc1ccc(Nc2ccnc3[nH]c(=O)c4cc(Cl)ccc4c23)cc1)c1ccc(F)cc1C(F)(F)F
Ans. < 11 nM

Qu. Now consider O=C(Nc1ccc(Nc2ccnc3[nH]c(=O)c4c(O)cccc4c23)cc1)c1ccc(F)cc1C(F)(F)F .
Ans. 11 to 100 nM
